Each entry below carries its reported inhibition at 10 µM.
System: primary mouse cortical neurons
Construct: primary cortical neurons, DIV 10
EXPERIMENTAL_PROTOCOL: cells
Design: Protection from NMDA-induced (30 uM, 10 min) neuronal death; Hoechst nuclear morphology by automated microscopy
ASSAY_CONDITIONS: Cortical neurone, 20 h, read-out: % inhibition, inhibition of NMDA-induced cell death (protection score), 30 min pre-treatment
Give the quantity in %, number only.

C=C1C[C@@H]2[C@H](CC[C@]3(C)C(=O)CC[C@@H]23)[C@@]2(C)C=CC(=O)C=C12 | -1.67
CCNC(=O)CCC/C=C\C[C@@H]1[C@@H](/C=C/[C@@H](O)CCc2ccccc2)[C@H](O)C[C@@H]1O | 9.97
COc1cc([C@@H]2c3cc4c(cc3[C@@H](O[C@@H]3O[C@@H]5CO[C@@H](c6cccs6)O[C@H]5[C@H](O)[C@H]3O)[C@H]3COC(=O)[C@H]23)OCO4)cc(OC)c1O [Teniposide (Vumon)] | -0.429
O=C1CCc2cc(OCCCCc3nnnn3C3CCCCC3)ccc2N1 | -13.8
CC(=O)O[C@H]1C(=O)[C@@]2(C)[C@H]([C@H](OC(=O)c3ccccc3)[C@]3(O)C[C@H](OC(=O)[C@H](O)[C@@H](NC(=O)c4ccccc4)c4ccccc4)C(C)=C1C3(C)C)[C@]1(OC(C)=O)CO[C@@H]1C[C@@H]2O | -12.8
CC(=O)C1=C(O)C=C2Oc3c(C(C)=O)c(O)c(C)c(O)c3[C@@]2(C)C1=O [(+)-Usniacin (D-Usnic acid)] | -4.28
Cc1cc2c(s1)Nc1ccccc1N=C2N1CCN(C)CC1 [Olanzapine (Zyprexa)] | 12.7
O=C(O)c1cc(O)c2c(c1)C(=O)c1cccc(O)c1C2=O | 5.39

Inquiry: Would you mind telling me what inhibition at 10 µM value was observed for COCCCOc1cc(C[C@@H](C[C@H](N)[C@@H](O)C[C@H](C(=O)NCC(C)(C)C(N)=O)C(C)C)C(C)C)ccc1OC [Aliskiren hemifumarate] ?
Reply text: 30.5

Inquiry: // lookup inhibition at 10 µM for COc1cc([C@H]2Oc3ccc([C@H]4Oc5cc(O)cc(O)c5C(=O)[C@@H]4O)cc3O[C@@H]2CO)ccc1O [Silymarin (Silybin B)]
Reply text: 10

Inquiry: Entry under review: C[C@H]1[C@H](NC(=O)/C(=N\OC(C)(C)C(=O)O)c2csc(N)n2)C(=O)N1S(=O)(=O)O . Reported inhibition at 10 µM?
Reply text: -1.22

Inquiry: Fill in the blank: the reported inhibition at 10 µM of CC1COc2c(N3CCN(C)CC3)c(F)cc3c(=O)c(C(=O)O)cn1c23 (stereo not shown) is ____.
Reply text: -0.567

----------
Test system: primary mouse cortical neurons
Construct: primary cortical neurons, DIV 10
EXPERIMENTAL_PROTOCOL: cells
Parameters: Protection from NMDA-induced (30 uM, 10 min) neuronal death; Hoechst nuclear morphology by automated microscopy
ASSAY_CONDITIONS: Cortical neurone, 20 h, read-out: % inhibition, inhibition of NMDA-induced cell death (protection score), 30 min pre-treatment
MEASUREMENT_KIND: inhibition at 10 µM (%)
Provide only the numeric value, understood in %.

O=C(O)c1cc(=O)[nH]c(=O)[nH]1 [Orotic acid (6-Carboxyuracil)] | -3.32
C=C1[C@H](CO)[C@@H](O)C[C@@H]1n1cnc2c(=O)[nH]c(N)nc21 [Entecavir hydrate] | 3.22
O=c1cc(-c2ccc(O)cc2)oc2cc(O)cc(O)c12 [Apigenin] | -0.752
C#C[C@]1(O)CC[C@H]2[C@@H]3CCc4cc(OC)ccc4[C@H]3CC[C@@]21C [Mestranol] | 11.8

Attention now shifts to the item below.
Inquiry: For CC(C)Cn1cnc2c(N)nc3ccccc3c21 [Imiquimod] , what is its reported inhibition at 10 µM?
Reply text: -8.7

Numbers sourced from paper PMC7489219.
